Test system: HS 578T breast
Assay: NCI-60 one-dose screen, 48 h (100 = growth as untreated, 0 = no growth, -100 = all killed)
Details: 10 µM unless noted
About 83,000 compounds went through this panel and 20% of them were active in at least one assay; those are over-represented in the sample as a whole.
REPORTED ENDPOINT: growth (%)
A number alone suffices; assume %.

Prompt: Output measured growth for this item: `COc1ccccc1/C=C1\COc2ccc(O)c(O)c2C1=O`
Completion: 10.4

Prompt: Please look at this compound and report its growth: `CC/C(=C(/c1ccc(Cl)cc1)c1ccc(OCCN2CCOCC2)cc1)c1ccccc1`
Completion: 99.2

Prompt: Return value of growth for input `Cn1cc2c(=O)nc3c(-c4nc5ccccc5[nH]4)n[nH]n3c2n1` , no commentary.
Completion: 93.5

Prompt: Specify growth for `COc1cc(Cl)cc(-c2nn(C(=O)NS(=O)(=O)c3ccc(Cl)cc3)cc2-c2ccncc2)c1` and stop.
Completion: 73.3

Prompt: Note down growth recorded for `NC1=CC(=O)c2cccnc2C1=O`
Completion: -10.3

Prompt: Using the record for `COc1cc(/C=C2/C=C(c3ccc(C(C)(C)C)cc3)N(CCc3ccc(S(N)(=O)=O)cc3)C2=O)cc(OC)c1OC` , state its measured growth.
Completion: 69.6

Prompt: Give growth for the following compound: `O=C(Nc1cc(C(F)(F)F)cc(C(F)(F)F)c1)c1cc(Cl)ccc1O`
Completion: -8.03

Prompt: Supply growth value. Item: `N#CSc1c[nH]c2ccc(/C=C/C(=O)/C=C(/C=C/c3ccc4[nH]cc(SC#N)c4c3)OB(F)F)cc12`
Completion: 26.8

Prompt: Identify the reported growth for the following entry. `Cc1ccc(C(=O)Nc2ccc(CN3CCN(C)CC3)c(C(F)(F)F)c2)cc1C#Cc1cnc(N)cc1C#N`
Completion: -23.5

Prompt: Check the records and state growth for `COC(=O)[C@H]1Cc2c([nH]c3ccccc23)[C@@H](c2cccs2)N1`
Completion: 103

Prompt: Complete the entry with growth for `COc1cc(Nc2nc3ccccc3cc2C(=O)Nc2ccc(F)c(F)c2)cc(OC)c1OC`
Completion: 61.2

Prompt: Item `CCN(CC)CCOc1ccc(/C(=C(\Cl)c2ccccc2)c2ccccc2)cc1` : provide growth
Completion: 55

Prompt: Read off the recorded growth for `COc1ccc(N2CCN(S(=O)(=O)c3oc(-c4ccccc4)nc3C#N)CC2)cc1`
Completion: 104

Prompt: For the compound `Cc1ccc(NC(=O)c2sc3nc(C)c(C(=O)c4ccccc4)cc3c2N)cc1` , give its reported growth.
Completion: 75.9

Prompt: // Input: CN1CCCc2cc(/C=C3\SC(=S)N(C(Cc4ccc(O)cc4)C(=O)O)C3=O)ccc21 (stereo not given) . Output its growth only.
Completion: 102

Prompt: Give the value of growth reported for the following: `O=C(NNC(=S)Nc1ccccc1)c1ccncc1`
Completion: 132

Prompt: Input `CCOC(=O)n1cc(-c2nonc2-c2cn(C)c3ccc(OC)cc23)c2cc(F)ccc21` , output reported growth.
Completion: 70.2

Prompt: For the compound `O=C(Oc1ccc(CO[N+](=O)[O-])cc1)c1ccccc1` , report growth.
Completion: -25.1

Prompt: Tell me measured growth for `C=C1C(=O)O[C@H]2[C@H]1CC/C(CNS(=O)(=O)c1ccc3ccccc3c1)=C\CC[C@@]1(C)O[C@@H]21` please.
Completion: 67

Prompt: Report growth, nothing else, for this compound: `Cc1nc(-n2[nH]c(=O)ccc2=O)sc1N=Nc1ccccc1`
Completion: 95.5

Prompt: Answer with the recorded growth for the compound listed here: `Fc1ccccc1-c1cnn2cc(-c3ccccc3)cnc12`
Completion: 93

Prompt: Quote growth reported for `COc1ccc(C/C(C)=C(/c2ccc(OCCN3CCCCCC3)cc2)c2ccc(OC(=O)c3ccccc3)cc2)cc1` please.
Completion: 98.5

Prompt: Give a short answer stating reported growth for `N#C/C(=N\Nc1ccc(Cl)cc1)C(=O)Nc1cc(-c2ccccc2)nn1-c1ccccc1` .
Completion: 47

Prompt: Recall and state the measured growth for `COc1cc(C=O)ccc1Oc1ccc([N+](=O)[O-])cc1[N+](=O)[O-]` .
Completion: 93.1

Prompt: Name the recorded growth of the compound listed here: `O=C(CN1C(=O)S/C(=C\C(Cl)=C\c2ccccc2)C1=O)NCCCn1ccnc1`
Completion: 51.7

Prompt: Read off the recorded growth for `Cc1ccc(/C=C2\COc3ccc(O)c(O)c3C2=O)cc1`
Completion: 20.5

Prompt: Identify the reported growth for the following entry. `O=C(NNc1ccccc1)c1ncc[nH]1`
Completion: 89.2

Prompt: Supply growth value. Item: CN(Cc1ccccc1)c1nc(Cl)c(C2CC(c3ccc(F)cc3)=NN2C=O)s1 (stereo not given)
Completion: 97.9

Prompt: Identify measured growth associated with `Clc1cccc(Nc2ncnc3ccc(-c4cncc(-n5cnnn5)c4)cc23)c1`
Completion: 67.2

Prompt: Specify growth for `Cc1ccc(C(=O)c2ccc(CC(=O)N=Nc3c(O)[nH]c4ccc(OC(F)(F)F)cc34)n2C)cc1` and stop.
Completion: 94.5

Prompt: Identify the reported growth for the following entry. `COc1ccc(Cn2cc(C(=O)Nc3cccnc3Nc3ccccc3)nn2)cc1`
Completion: 94.1

Prompt: Answer with the recorded growth of `CC1(C)C(N)=Nc2cc(OCCCCN3Cc4ccccc4C3)c(OCC3CC3)cc21` only.
Completion: 88.3

Prompt: Answer with reported growth of `Cc1[nH]c(C(=O)Nc2nc3ccc(NC(=O)CCN)cc3s2)c(Cl)c1Cl`
Completion: 90.8

Prompt: Return the recorded growth value; entry: `[2H]C([2H])([2H])Oc1cc(F)ccc1/C=C/C(=O)/C=C(/C=C/c1ccc(F)cc1OC([2H])([2H])[2H])OB(F)F`
Completion: 46.3

Prompt: Answer with reported growth of `COc1cc(N=Nc2ccc(O)c3ncccc23)c2ncccc2c1`
Completion: 33.9
